# METHOD_DESCRIPTION: NCI Yeast Anticancer Drug Screen. Data for the cln2 rad14 strain (AID 165);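 also: 0% = growth equal to vehicle treated cultures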
# MEASUREMENT_CONTEXT: S. cerevisiae cln2 rad14 strain, at 50.0 µM (retest, dose inferred, filed as 5.0), hits give high values
This is part of a sample that, as a whole, favours compounds with a hit. Of some 79,000 tested, about 15% had one in any assay.
READOUT_KIND: growth inhibition (%)
Return type: number; implicit unit %.

Some solved entries appear below for comparison.
Ask: Which growth inhibition is listed for "CN(C)c1cccc(F)c1C(=O)NC(=O)Nc1ccc(Cl)cc1" ?
Reply: -2

Ask: Form field: reported growth inhibition of "Cn1c2ccccc2c2nnc(N/N=C/c3ccccn3)nc21"
Reply: 97

Ask: I'd like to know its growth inhibition. The molecule in question is "COc1ccc(-c2cscc2N)cc1"
Reply: 89

Ask: May I ask what growth inhibition has been recorded for "CN(C)c1c([N+](=O)[O-])cc(N2C(=O)C=CC2=O)cc1[N+](=O)[O-]" ?
Reply: 99

Ask: Which growth inhibition reading was recorded for the molecule "O=S(=O)(Nc1ccc2ccccc2c1)c1ccccc1" ?
Reply: 93

Ask: Using the record for "O=C(O)c1ccc(/C=C2\COc3ccccc3C2=O)cc1" , report its growth inhibition.
Reply: 80

Ask: Name the reported growth inhibition value associated with the molecule "COC(=O)c1c(C(N)=O)c(C)n(NC(=O)c2ccccc2)c1C"
Reply: 6

Ask: Quick one: growth inhibition of "Cc1[nH]nc(-c2ccon2)c1N=O" ?
Reply: 48

Ask: Entry under review: "S=C(NCCNC(=S)[S][Sn]([c]1ccccc1)([c]1ccccc1)[c]1ccccc1)[S][Sn]([c]1ccccc1)([c]1ccccc1)[c]1ccccc1" . Reported growth inhibition?
Reply: 93

Ask: What value of measured growth inhibition is listed for O=C1OC(c2ccccc2)CC1Cc1ccccc1 (configuration not stated) ?
Reply: -5

Others:
Ask: Fill blank: measured growth inhibition of the molecule "N#CCCN(CCCN1CCOCC1)C(=S)Nc1cccc(C(F)(F)F)c1" is ____.
Reply: 60

Ask: growth inhibition for COCC1C(=O)c2cc3c(cc2C12C=CC1(C=C2)OCCO1)OCO3 (configuration not stated) ?
Reply: 20

Ask: # get_value(readout='growth inhibition', item= COC1/C=C/OC2(C)Oc3c(C)c(OC(C)=O)c4c(c3C2=O)C(=O)C=C(NC(=O)/C(C)=C\C=C\C(C)C(O)C(C)C(O)C(C)C(OC(C)=O)C1C)C4=O (configuration not stated) )
Reply: 96

Ask: I would be grateful if you could share the reported growth inhibition for C[CH2][Ge]([CH2]C)([CH2]C)[O]C(=O)C([O][Ge]([CH2]C)([CH2]C)[CH2]C)c1ccccc1 (configuration not stated) .
Reply: 15

Ask: For the molecule shown here, "FC(F)(F)c1nc(S)cc(=S)[nH]1" , give the reported growth inhibition.
Reply: 22

Ask: Look up growth inhibition for this molecule: "CN(C)CCCNc1ccc(O)c2sc3ccccc3c(=O)c12"
Reply: -11

Ask: So what's the measured growth inhibition for this one? "c1coc(C2=Nc3cccc4cccc(c34)N2)c1"
Reply: 65

###

# METHOD_DESCRIPTION: NCI Yeast Anticancer Drug Screen. Data for the mlh1 rad18 strain (AID 175)
# MEASUREMENT_CONTEXT: S. cerevisiae mlh1 rad18 strain growth inhibition; at 50.0 µM (retest, dose inferred, filed as 5.0); hits give high values
About 79,000 compounds went through this panel and 15% of them were active in at least one assay; those are over-represented in the sample as a whole.
READOUT_KIND: growth inhibition (%)
Give the quantity in %, number only.

Below, 5 compounds whose answers are already recorded.
Ask: growth inhibition for "CCOC(=O)c1[nH]n(-c2ccccc2)c(=O)c1/C=N/C(=S)Nc1ccccc1OC" ?
Reply: 1

Ask: What does the record list as growth inhibition for "COc1cc(N=Nc2cccc(S(N)(=O)=O)c2)c2ccccc2c1N" ?
Reply: 98

Ask: Any idea what its growth inhibition is? The compound is "O=C([O-])c1ccc([I+]c2ccccc2)cc1"
Reply: 80

Ask: // query growth inhibition value for entry "NC1=CC(=O)c2ccccc2C1=O"
Reply: 84

Ask: Which measured growth inhibition value corresponds to "CCOc1cc(/C=N/NC(=S)NC23CC4CC(CC(C4)C2)C3)ccc1O" ?
Reply: 29

New cases:
Ask: Would you mind telling me what growth inhibition value was observed for "COc1cc2oc(-c3ccc(O)cc3O)c(CC=C(C)C)c(=O)c2c(O)c1/C=C/C(C)C" ?
Reply: 97

Ask: What value of growth inhibition has been recorded for this entry: CC(C(=O)O)c1cn(Cc2ccccc2)c2ccccc12 (stereo not given)
Reply: 34

Ask: Entry under review: "CN(C)C(=O)SC1=C(c2c(Cl)cccc2Cl)C(=O)c2ccccc21" . Reported growth inhibition?
Reply: 93

Ask: Using the record for "Clc1ccc(-c2nc3ccc(Cl)cc3[nH]2)cc1" , report its growth inhibition.
Reply: 54

Ask: What does the data say about its growth inhibition? Entry: "Cc1ccc2c(ccc(CC(=S)[S-])[n+]2C)c1"
Reply: 41

Ask: Would you kindly share the measured growth inhibition for Cc1ccc(/C=C2\CN(C)CC3=C2NC(=S)NC3c2ccc(C)cc2)cc1 (stereo not given) ?
Reply: 48

Ask: # lookup: growth inhibition of "S=c1nc(N2CCCCC2)ss1"
Reply: 94

Ask: // growth inhibition lookup, key: "N#CSCc1c(Cl)cccc1Cl"
Reply: 48

Ask: Query: growth inhibition; subject: "O=C(O)c1ccc(/C=C2\COc3ccccc3C2=O)cc1"
Reply: 91

Ask: Could you share which growth inhibition value was measured for CC(=O)c1c2c(cc3c1CC1(C3)Cc3ccc4c(c3C1=O)CCC4)CCC2 (stereo not given) ?
Reply: 6

Ask: I am curious: what growth inhibition value has been reported for "COc1ccc(/C=N/Nc2ccccc2)cc1" ?
Reply: 96

Ask: Reported growth inhibition for "Cc1c[n+](=O)c2ccccc2n1[O-]" : what is it?
Reply: -6

Ask: # lookup: growth inhibition of Nc1nc(N)c2nc(CNc3ccc(C(=O)NC(CCC(=O)O)C(=O)O)cc3)cnc2n1 (stereo not given)
Reply: -19

Ask: Requested read-out: growth inhibition. Entry: "C1CSCCCSCCCSCCCSCCCSC1"
Reply: 36

Ask: Name the reported growth inhibition value associated with the compound O=C1NC(c2cccc3ccccc23)Nc2ccc(Cl)cc21 (stereo not given)
Reply: 94

Ask: Item under review: "COC(=O)c1cc(=O)n(-c2ccccc2OC)c(SC)n1" . Reported growth inhibition?
Reply: 79

These data points were gathered from PubChem BioAssay (NCI).
